# Tested on: Phospho-Rb Ser807/811 in OVCAR3 cells
# METHOD: OVCAR3 Phospho-Rb Ser807/811 HTRF assay
# Format: cell-based
# SETUP CONDITIONS: Homo sapiens, OVCAR-3, 1 h, OVCAR3 cells, Phospho-Rb Ser807/811 HTRF, 1 hour incubation; read-out: pRb-OVCAR3 IC50
MEASUREMENT NAME: IC50 (nM)
Numbers only here, please. The scale is nM.

Item: COc1cc(OC)c(C=O)c(OCC(=O)Nc2cc([C@H]3C[C@@H](OC(=O)N4CCC4(C)C)C3)[nH]n2)c1 Test system: Phospho-Rb Ser807/811 in OVCAR3 cells Read-out: IC50 Value: ? 17.6

Item: COc1cc(O)c(C=O)c(OCC(=O)Nc2cc([C@H]3CC[C@@H](OC(=O)NCCC#N)C3)[nH]n2)c1 Test system: Phospho-Rb Ser807/811 in OVCAR3 cells Read-out: IC50 Value: ? 41.8

Item: CNN(C)C(=O)O[C@@H]1CC[C@H](c2cc(NC(=O)COc3cc(OC)cc(O)c3C=O)n[nH]2)C1 Test system: Phospho-Rb Ser807/811 in OVCAR3 cells Read-out: IC50 Value: ? 63.9

Item: COc1cc(O)c(C=O)c(OCC(=O)Nc2cc([C@H]3CC[C@@H](OC(=O)N[C@@H](C)C(F)F)C3)[nH]n2)c1 Test system: Phospho-Rb Ser807/811 in OVCAR3 cells Read-out: IC50 Value: ? 37.1

Item: COc1cc(O)c(C=O)c(OCC(=O)Nc2cc([C@H]3CC[C@@H](OC(=O)NCc4ccccn4)C3)[nH]n2)c1 Test system: Phospho-Rb Ser807/811 in OVCAR3 cells Read-out: IC50 Value: ? 167
